Cited source for all entries: ChEMBL document CHEMBL4229463

test system: Prunus dulcis; assay: Inhibition of almond beta-glucosidase at 120 uM using PNPG as substrate after 3 mins by UV-vis spectrophotometric method relative to control
Please note: fulfilled applies when inhibition is 30% or greater, and not fulfilled applies otherwise.

{"columns": ["molecule", "label_value"],
 "data": [
  ["OC[C@H]1C[C@@H](O)[C@H](O)[C@@H](O)[C@H]1CO (racemic)", "fulfilled"],
  ["OC[C@H]1C[C@H](O)[C@@H](Cl)[C@H](O)[C@H]1CO (racemic)", "not fulfilled"],
  ["OC[C@H]1C[C@H](Cl)[C@@H](O)[C@H](O)[C@H]1CO (racemic)", "fulfilled"],
  ["C[C@H]1O[C@H](O[C@H]2[C@H](O)[C@@H](O)[C@@H](O[C@H]3[C@H](O)[C@@H](O)C(O)O[C@@H]3CO)O[C@@H]2CO)[C@H](O)[C@@H](O)[C@@H]1N[C@H]1C=C(CO)[C@@H](O)[C@H](O)[C@H]1O (stereo partly specified)", "fulfilled"],
  ["OC[C@H]1C[C@H](O)[C@@H](O)[C@H](O)[C@H]1CO (racemic)", "not fulfilled"],
  ["OC[C@H]1C[C@H](O)[C@H](O)[C@@H](O)[C@H]1CO (racemic)", "not fulfilled"]
]}

###

pIC50 values for the compounds below.
assay: Inhibition of Saccharomyces cerevisiae alpha-glucosidase using PNPG as substrate after 3 mins by UV-vis spectrophotometric method
pIC50: −log10 of the molar value.

{"columns": ["compound", "pIC50"],
 "data": [
  ["OC[C@H]1C[C@H](Cl)[C@@H](O)[C@H](O)[C@H]1CO (racemic)", 3.76],
  ["C[C@H]1O[C@H](O[C@H]2[C@H](O)[C@@H](O)[C@@H](O[C@H]3[C@H](O)[C@@H](O)C(O)O[C@@H]3CO)O[C@@H]2CO)[C@H](O)[C@@H](O)[C@@H]1N[C@H]1C=C(CO)[C@@H](O)[C@H](O)[C@H]1O (stereo partly drawn)", 4.28],
  ["OC[C@H]1C[C@H](O)[C@@H](Cl)[C@H](O)[C@H]1CO (racemic)", 3.81]
]}

###

system: Prunus dulcis; assay: Inhibition of almond beta-glucosidase at 80 uM using PNPG as substrate after 3 mins by UV-vis spectrophotometric method relative to control
measured_attribute: inhibition (%)

{"columns": ["molecule", "observed_result"],
 "data": [
  ["OC[C@H]1C[C@@H](O)[C@H](O)[C@@H](O)[C@H]1CO (racemic)", 33.8],
  ["OC[C@H]1C[C@H](O)[C@@H](Cl)[C@H](O)[C@H]1CO (racemic)", 24.6],
  ["OC[C@H]1C[C@H](O)[C@@H](O)[C@H](O)[C@H]1CO (racemic)", 17.7],
  ["C[C@H]1O[C@H](O[C@H]2[C@H](O)[C@@H](O)[C@@H](O[C@H]3[C@H](O)[C@@H](O)C(O)O[C@@H]3CO)O[C@@H]2CO)[C@H](O)[C@@H](O)[C@@H]1N[C@H]1C=C(CO)[C@@H](O)[C@H](O)[C@H]1O (stereo partly specified) [ACARBOSE]", 58],
  ["OC[C@H]1C[C@H](O)[C@H](O)[C@@H](O)[C@H]1CO (racemic)", 12.9],
  ["OC[C@H]1C[C@H](Cl)[C@@H](O)[C@H](O)[C@H]1CO (racemic)", 24.1]
]}

###

system: Saccharomyces cerevisiae; experiment: Inhibition of Saccharomyces cerevisiae alpha-glucosidase at 80 uM using PNPG as substrate after 3 mins by UV-vis spectrophotometric method relative to control
Note to self: values exactly at 30% are yes. So inhibition at or above 30% is yes, below is no.

{"columns": ["compound", "label_value"],
 "data": [
  ["OC[C@H]1C[C@H](O)[C@@H](O)[C@H](O)[C@H]1CO (racemic)", "no"],
  ["OC[C@H]1C[C@H](O)[C@@H](Cl)[C@H](O)[C@H]1CO (racemic)", "yes"],
  ["OC[C@H]1C[C@@H](O)[C@H](O)[C@@H](O)[C@H]1CO (racemic)", "yes"],
  ["OC[C@H]1C[C@H](Cl)[C@@H](O)[C@H](O)[C@H]1CO (racemic)", "yes"],
  ["C[C@H]1O[C@H](O[C@H]2[C@H](O)[C@@H](O)[C@@H](O[C@H]3[C@H](O)[C@@H](O)C(O)O[C@@H]3CO)O[C@@H]2CO)[C@H](O)[C@@H](O)[C@@H]1N[C@H]1C=C(CO)[C@@H](O)[C@H](O)[C@H]1O (stereo partly specified)", "yes"],
  ["OC[C@H]1C[C@H](O)[C@H](O)[C@@H](O)[C@H]1CO (racemic)", "no"]
]}

###

Let's look at some compounds and their measured inhibition.
tested on: Saccharomyces cerevisiae; assay: Inhibition of Saccharomyces cerevisiae alpha-glucosidase at 120 uM using PNPG as substrate after 3 mins by UV-vis spectrophotometric method relative to control

{"columns": ["compound", "subject_of_test", "inhibition / %"],
 "data": [
  ["OC[C@H]1C[C@H](O)[C@@H](Cl)[C@H](O)[C@H]1CO (racemic)", "Saccharomyces cerevisiae", 56.4],
  ["OC[C@H]1C[C@@H](O)[C@H](O)[C@@H](O)[C@H]1CO (racemic)", "Saccharomyces cerevisiae", 44.6],
  ["OC[C@H]1C[C@H](O)[C@H](O)[C@@H](O)[C@H]1CO (racemic)", "Saccharomyces cerevisiae", 16.3]
]}

###

tested on: Prunus dulcis; assay: Inhibition of almond beta-glucosidase at 40 uM using PNPG as substrate after 3 mins by UV-vis spectrophotometric method relative to control

{"columns": ["compound", "subject_of_test", "inhibition"],
 "data": [
  ["OC[C@H]1C[C@H](O)[C@@H](O)[C@H](O)[C@H]1CO (racemic)", "Prunus dulcis", "10.9%"],
  ["OC[C@H]1C[C@H](O)[C@H](O)[C@@H](O)[C@H]1CO (racemic)", "Prunus dulcis", "2%"],
  ["C[C@H]1O[C@H](O[C@H]2[C@H](O)[C@@H](O)[C@@H](O[C@H]3[C@H](O)[C@@H](O)C(O)O[C@@H]3CO)O[C@@H]2CO)[C@H](O)[C@@H](O)[C@@H]1N[C@H]1C=C(CO)[C@@H](O)[C@H](O)[C@H]1O (stereo partly specified)", "Prunus dulcis", "40%"],
  ["OC[C@H]1C[C@H](O)[C@@H](Cl)[C@H](O)[C@H]1CO (racemic)", "Prunus dulcis", "18.4%"],
  ["OC[C@H]1C[C@@H](O)[C@H](O)[C@@H](O)[C@H]1CO (racemic)", "Prunus dulcis", "25.1%"],
  ["OC[C@H]1C[C@H](Cl)[C@@H](O)[C@H](O)[C@H]1CO (racemic)", "Prunus dulcis", "19.1%"]
]}

###

tested on: Saccharomyces cerevisiae; experiment: Inhibition of Saccharomyces cerevisiae alpha-glucosidase at 60 uM using PNPG as substrate after 3 mins by UV-vis spectrophotometric method relative to control
The label depends only on inhibition: true if it is at least 20%, false if it is smaller.

{"columns": ["molecule", "label_value"],
 "data": [
  ["OC[C@H]1C[C@H](O)[C@H](O)[C@@H](O)[C@H]1CO (racemic)", "false"],
  ["OC[C@H]1C[C@H](Cl)[C@@H](O)[C@H](O)[C@H]1CO (racemic)", "true"],
  ["OC[C@H]1C[C@H](O)[C@@H](O)[C@H](O)[C@H]1CO (racemic)", "false"],
  ["OC[C@H]1C[C@@H](O)[C@H](O)[C@@H](O)[C@H]1CO (racemic)", "true"],
  ["C[C@H]1O[C@H](O[C@H]2[C@H](O)[C@@H](O)[C@@H](O[C@H]3[C@H](O)[C@@H](O)C(O)O[C@@H]3CO)O[C@@H]2CO)[C@H](O)[C@@H](O)[C@@H]1N[C@H]1C=C(CO)[C@@H](O)[C@H](O)[C@H]1O (stereo partly specified)", "true"],
  ["OC[C@H]1C[C@H](O)[C@@H](Cl)[C@H](O)[C@H]1CO (racemic)", "true"]
]}

###

tested on: Saccharomyces cerevisiae; experiment: Inhibition of Saccharomyces cerevisiae alpha-glucosidase at 40 uM using PNPG as substrate after 3 mins by UV-vis spectrophotometric method relative to control

{"columns": ["compound", "unit_of_measure", "inhibition"],
 "data": [
  ["OC[C@H]1C[C@H](O)[C@@H](O)[C@H](O)[C@H]1CO (racemic)", "%", 7.83],
  ["C[C@H]1O[C@H](O[C@H]2[C@H](O)[C@@H](O)[C@@H](O[C@H]3[C@H](O)[C@@H](O)C(O)O[C@@H]3CO)O[C@@H]2CO)[C@H](O)[C@@H](O)[C@@H]1N[C@H]1C=C(CO)[C@@H](O)[C@H](O)[C@H]1O (stereo partly specified) [ACARBOSE]", "%", 33],
  ["OC[C@H]1C[C@H](O)[C@H](O)[C@@H](O)[C@H]1CO (racemic)", "%", 7.93],
  ["OC[C@H]1C[C@H](O)[C@@H](Cl)[C@H](O)[C@H]1CO (racemic)", "%", 20.4],
  ["OC[C@H]1C[C@@H](O)[C@H](O)[C@@H](O)[C@H]1CO (racemic)", "%", 22.5],
  ["OC[C@H]1C[C@H](Cl)[C@@H](O)[C@H](O)[C@H]1CO (racemic)", "%", 15]
]}
